Test: Components of the Cytosolic LPS Sensing Pathway: Gene Identification via Genome-wide siRNA Screen
Conditions: RAW264.7 macrophages, IL-1a HTRF, actives lie on both sides, screened at 100 nM (by protocol), cells primed 5 h with Pam3CSK4 first
In all, about 53,000 sequences went through this assay and about 3,700 (7%) were called active.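 How the source made its calls: active means gene knockdowns whose robust z-score for IL-1 alpha signal is at least 2 or at most -2, so actives lie on both sides; inactive means the rest.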 This is one part of a sample in which actives are shown more often than they occur.
Log the outcome using a class from yes (active), no (inactive)

Please review the following examples before continuing.
CHAIN_SEQUENCE: CCUACAGAGUACCCUGUCUTT against Gas2l2
CLASS_LABEL: yes

CHAIN_SEQUENCE: GGCUUUCUUUUUGAAAGAATT against Arhgap10
CLASS_LABEL: no

CHAIN_SEQUENCE: CCAUUCUUAGUUCACUAUATT against Rgcc
CLASS_LABEL: yes

CHAIN_SEQUENCE: GCUACCUUCAGACAAGCACTT against Prss32
CLASS_LABEL: no

CHAIN_SEQUENCE: GUUUGAGUCUGGAGACGUGTT against Commd4
CLASS_LABEL: no

CHAIN_SEQUENCE: CCAGUAAACCUACAUGUUCTT against Htr3b
CLASS_LABEL: no

CHAIN_SEQUENCE: GGACUAUAUGAGAUAAACUTT against Pask
CLASS_LABEL: no

CHAIN_SEQUENCE: GGCUGAGGUUCGAGUGUAUTT against Rps6ka4
CLASS_LABEL: yes

CHAIN_SEQUENCE: GGUCAUUGAAAACUGUGCGTT against Sardh
CLASS_LABEL: no

CHAIN_SEQUENCE: GGAAACAUGUCCUCACACATT against Top3b
CLASS_LABEL: no

Answer briefly: the call reported for GGAUUCCAUCUUUGUAUGATT against Cbr4 in this assay. no

Same question for GGAUGCAGUACGAAAUUCUTT against Psmd1 please. yes

###

Assay: Components of the Cytosolic LPS Sensing Pathway: Gene Identification via Genome-wide siRNA Screen
Conditions: RAW264.7 macrophages, IL-1a HTRF, actives lie on both sides, screened at 100 nM (by protocol), cells primed 5 h with Pam3CSK4 first
About 3,700 (7%) of roughly 53,000 sequences were called active. This is one part of a sample in which actives are shown more often than they occur.
Recorded measurements of z-score, one per entry
Response field accepts a number only; no unit should be typed.

CHAIN_SEQUENCE: GGUGGCCGUGAAGAAGAUCTT against Mapk4
MEASUREMENT: -0.902
--
CHAIN_SEQUENCE: GGAGGGAUCUAAGGAACAGTT against Fgf8
MEASUREMENT: 0.263
--
CHAIN_SEQUENCE: GGCAUUAGAGCAGAGUCGUTT against Trmu
MEASUREMENT: -1.29

Which measured z-score value corresponds to CCUUUCCUAACUUGAUCACTT against Cbr2 ? 0.443

Ok, now GGAAAACCAUGAAGCCAUGTT against Dnase1l3 0.69

Record: CCUGCAAUCAAAACAUCAATT against Vmn1r10 1.13

###

Assay: Components of the Cytosolic LPS Sensing Pathway: Gene Identification via Genome-wide siRNA Screen;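 further: robust z of the log signal after scaling to non-targeting control siRNA wells of the plate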
Details: RAW264.7 macrophages, IL-1a HTRF, actives lie on both sides, screened at 100 nM (by protocol), cells primed 5 h with Pam3CSK4 first
Screen size: about 53,000 sequences; about 3,700 (7%) were called active. The full list was thinned out, with actives kept by preference.
Where z-score equals or exceeds -0.3, the correct label is rule met; where it does not, the label is rule not met.

CHAIN_SEQUENCE: GGCCUAUAAUUUCUUUACGTT against Cc2d2a
CLASS_LABEL: rule not met

CHAIN_SEQUENCE: GGACGCAGACAGGACAAAATT against Parp2
CLASS_LABEL: rule met

CHAIN_SEQUENCE: GCUUCCUACCAUGAUGGUCTT against Otol1
CLASS_LABEL: rule met

Tell me whether z-score is at least -0.3 here: GGGAAAUCUAUUUUUGUGATT against Mob3c rule not met

Cool, now GGCGUAUGCAGAAUUCUACTT against Cox6c rule met

Next: GGUAUAAGGAUUCUUUGAATT against Alg13 rule not met

###

Assay: Components of the Cytosolic LPS Sensing Pathway: Gene Identification via Genome-wide siRNA Screen;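 further: robust z of the log signal after scaling to non-targeting control siRNA wells of the plate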
Conditions: RAW264.7 macrophages, IL-1a HTRF, actives lie on both sides, screened at 100 nM (by protocol), cells primed 5 h with Pam3CSK4 first
Screen size: about 53,000 sequences; about 3,700 (7%) were called active.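 How the source made its calls: active means gene knockdowns whose robust z-score for IL-1 alpha signal is at least 2 or at most -2, so actives lie on both sides; inactive means the rest.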 Only a selection was taken, and actives are over-represented in it overall.
One label from this list, please: active, inactive

For orientation, consider the following solved cases.
CHAIN_SEQUENCE: GGAAUUUUCUGGAAAUCCATT against Tctn2
CLASS_LABEL: inactive

CHAIN_SEQUENCE: GCUAUGACCGGAGGUUCUATT against Morn5
CLASS_LABEL: inactive

CHAIN_SEQUENCE: GGCCUGUAUUCUGCUCUGUTT against Olfr341
CLASS_LABEL: inactive

CHAIN_SEQUENCE: GGAGAGAGAGAAGAAGGAUTT against Zmat2
CLASS_LABEL: inactive

CHAIN_SEQUENCE: CUAAAUGCCUCCUACCUUUTT against Krtap4-16
CLASS_LABEL: inactive

CHAIN_SEQUENCE: GGCCAAGAAGACAAGAAAATT against Ddx54
CLASS_LABEL: inactive

CHAIN_SEQUENCE: UAUUGUCACCGUCUUAGGCTT against Olfr1028
CLASS_LABEL: active

CHAIN_SEQUENCE: GGAGCAGUAUAUCCUACAUTT against Olfr510
CLASS_LABEL: active

Which outcome did this test record for the sequence GCUACUAUGUGCCCUGAUATT against Ms4a7 ? inactive

Would you kindly repeat that for GUGUGCUUGAUGGAGACCATT against Riiad1 ? active

Ok, now CCAAUUCGUGUUAAGGAACTT against Riox2 inactive

And for GGCUGUUACAUUCUAUAUUTT against Kif5c ? inactive

###

Test: Components of the Cytosolic LPS Sensing Pathway: Gene Identification via Genome-wide siRNA Screen;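 further: robust z of the log signal after scaling to non-targeting control siRNA wells of the plate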
Details: RAW264.7 macrophages, IL-1a HTRF, actives lie on both sides, screened at 100 nM (by protocol), cells primed 5 h with Pam3CSK4 first
In all, about 53,000 sequences went through this assay and about 3,700 (7%) were called active. Many of the other results were omitted from the sample, so actives are more common in it than they were.
Labels assigned by z-score range: lo = under -0.7, med = from -0.7 up to 0.5, hi = 0.5 and over

Some entries whose results are on file:
CHAIN_SEQUENCE: GGGACUUUGUAAACAGUUUTT against Eci2
CLASS_LABEL: hi
--
CHAIN_SEQUENCE: GCAUCUACCUUCUAUUACUTT against Gpsm1
CLASS_LABEL: hi
--
CHAIN_SEQUENCE: GGGUUAGGCCAGUUCUGAUTT against Reg3d
CLASS_LABEL: lo
--
CHAIN_SEQUENCE: GGCUUCUGGUACAUUAUUGTT against Lcn10
CLASS_LABEL: lo
--
CHAIN_SEQUENCE: GGCUGAUGGAAAUCCUUAATT against Ctif
CLASS_LABEL: med
--
CHAIN_SEQUENCE: GGAUGCAGAGACCUAUUUCTT against Cacng5
CLASS_LABEL: med
--
CHAIN_SEQUENCE: GGUUAUUUUGGCUAUAAGATT against Traf3
CLASS_LABEL: lo
--
CHAIN_SEQUENCE: GGUAAUACAACUGAGAACUTT against Zfp2
CLASS_LABEL: med

Where would GGUUGAAUCCUAAGAAUGUTT against Edc3 land among the classes by reported z-score? med

How about this sequence: GCCUAACCAACAAUUCUACTT against Oas1b hi

# iterate: GGAACUGCCUGAAAAAAUGTT against Dcn lo

Note, next up: GAAGGUGAAGUGCAGGAAGTT against Fxyd7 med

Try the sequence GGGUCAAGUUUACAGAUGATT against Luc7l med

Record: GGGAGAAUGUUUUUCUUACTT against Vsig8 lo

Same again, this time with GGAAAUAAACAAGUCCCACTT against Urm1 med

Param item: GGAAACCAUUGAAGAUGUUTT against Psmd13 lo

Subsequent entry: GGAGUCUUCUCAAUUUGACTT against Olfr1105 med

// next record CCACUAAGGUUUGAAGAAGTT against Nes hi

###

Assay: Components of the Cytosolic LPS Sensing Pathway: Gene Identification via Genome-wide siRNA Screen;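 further: robust z of the log signal after scaling to non-targeting control siRNA wells of the plate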
Conditions: RAW264.7 macrophages, IL-1a HTRF, actives lie on both sides, screened at 100 nM (by protocol), cells primed 5 h with Pam3CSK4 first
The campaign covered roughly 53,000 sequences. About 3,700 (7%) were called active. The full list was thinned out, with actives kept by preference.
Mark each entry fulfilled if its z-score sits below 0.5, and not fulfilled for all others.

Past entries and their recorded results:
CHAIN_SEQUENCE: GCACUAUCCACAUGCACAUTT against Olfr1281
CLASS_LABEL: fulfilled

CHAIN_SEQUENCE: GGUGAGAAGACCAUUGAUUTT against Insr
CLASS_LABEL: fulfilled

CHAIN_SEQUENCE: GGUGACAGAGAUUUUCGAATT against Tbc1d22a
CLASS_LABEL: not fulfilled

CHAIN_SEQUENCE: GGUGUGUUCCCAACUGGUGTT against Olfr1124
CLASS_LABEL: not fulfilled

CHAIN_SEQUENCE: CCCAGGAACUAUGAGUUGUTT against Rnf31
CLASS_LABEL: fulfilled

Does the reported z-score of GCCUCAACAUGAUCCCGAGTT against Ccdc172 stay below 0.5? fulfilled

# iterate: GGAUAUCGUCUGCUACCUGTT against Dgkb not fulfilled
